Entry source: patent US12171768B2

Assay: Phase 1 MAD plasma pharmacokinetics
Format: in vivo, human
Settings: human, plasma, oral; steady-state (Day 14), 200 mg QD; geometric mean (% CV)
Description: The selection of Compound A doses will be guided by the safety, tolerability, and PK data in humans from the SAD portion of the study. […] Increasing dose levels in subsequent MAD cohorts will be identified based on the safety and PK observed in the previous SAD and MAD cohorts. Dose escalation between each MAD cohort will not exceed 100%. However, the dosing interval and the duration of dosing may change following review of the safety, PK, and PD data from Part A. […]

structure-notation: Cn1c(=O)n([C@@H]2CCC(=O)NC2=O)c2cccc(C#CCOC3CCN(C[C@H]4CC[C@H](n5cc(NC(=O)c6cnn7ccc(N8C[C@H]9C[C@@H]8CO9)nc67)c(C(F)F)n5)CC4)CC3)c21
unit-abbrev: ng/mL
Cmax at 14 days: 25.2
